TARGET SYSTEM: FSHR (Homo sapiens, UniProt P23945)
Construct: expressed in transfected cells; host or cells: CHO (Cho-FSHR-LUC-1-1-43)
Sequence (P23945 18-695): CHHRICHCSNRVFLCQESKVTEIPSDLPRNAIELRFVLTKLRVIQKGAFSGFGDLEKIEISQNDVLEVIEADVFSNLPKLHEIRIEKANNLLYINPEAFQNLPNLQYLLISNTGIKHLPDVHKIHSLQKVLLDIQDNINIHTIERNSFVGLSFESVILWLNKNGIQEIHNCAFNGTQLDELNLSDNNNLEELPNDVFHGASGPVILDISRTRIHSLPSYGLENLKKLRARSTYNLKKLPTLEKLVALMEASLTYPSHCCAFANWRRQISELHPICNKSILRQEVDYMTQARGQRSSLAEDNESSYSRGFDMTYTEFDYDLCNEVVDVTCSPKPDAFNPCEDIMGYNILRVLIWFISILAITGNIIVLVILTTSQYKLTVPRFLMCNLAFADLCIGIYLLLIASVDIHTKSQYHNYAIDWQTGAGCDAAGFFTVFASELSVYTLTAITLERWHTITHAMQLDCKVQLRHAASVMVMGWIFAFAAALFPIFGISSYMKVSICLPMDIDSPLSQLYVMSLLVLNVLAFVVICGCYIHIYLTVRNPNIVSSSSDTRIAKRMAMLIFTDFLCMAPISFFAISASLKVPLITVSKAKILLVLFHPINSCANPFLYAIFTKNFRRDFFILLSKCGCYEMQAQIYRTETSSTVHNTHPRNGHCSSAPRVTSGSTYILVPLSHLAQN
ASSAY SUMMARY: EC50 of cyclic AMP production in CHO FSHR cells + EC20 FSH (Assay A)
Format: cell-based
CONDITION INFO: CHO FSHR cells + EC20 FSH, cAMP HTRF; read-out: Assay A: EC50 of cyclic AMP production
Protocol: EC50 of Cyclic AMP Production in CHO FSHR Cells+EC20 FSH (Assay A) 2500 Cho-FSHR-LUC-1-1-43 cells were plated per well in 5 μl of phenol red free DMEM/F12+1% FBS. Cells were plated in 384 well, solid white low volume plates (Greiner 784075) by Multidrop. […] The plates were read on Envision using the cAMP HTRF—low volume 384 well protocol. The readout was the calculated fluorescence ratio (665 nm/620 nm). […]
VALUE TYPE: EC50

1) COc1cc2c(cc1C=C(C)C)-c1c(c(C(=O)N3CCC(O)C3)nn1-c1ccsc1)CO2 (stereo not drawn) :: 1 to 5 µM
2) [2H]C([2H])([2H])O[C@@H]1CC[C@H](N(C(=O)c2nn(-c3ccsc3)c3c2COc2cc(OC)c(-c4ccn(C)c4)cc2-3)C([2H])([2H])[2H])C1 :: 1 to 5 µM
3) COC(=O)C1CCCN(C(=O)c2nn(-c3ccsc3)c3c2COc2cc(OC)c(C=C(C)C)cc2-3)CC1 (stereo not drawn) :: 0.1 to 1 µM

Data request: Param item = `[2H]C([2H])([2H])N(CCCN(C(=O)C1CCC1)C([2H])([2H])[2H])C(=O)c1nn(-c2ccsc2)c2c1COc1cc(OC)c(C=C(C)C)cc1-2` ; retrieve measured EC50.
Data returned: 0.1 to 1 µM

Data request: Param item = `COc1cc2c(cc1-c1ccn(C)n1)-c1c(c(C(=O)O[C@H]3CC[C@H](N)C3)nn1-c1ccsc1)CO2` ; retrieve measured EC50.
Data returned: < 0.1 µM

Data request: Param item = [2H]C([2H])([2H])N(C(=O)c1nn(-c2ccsc2)c2c1COc1cc(OC)c(-c3cn(C([2H])([2H])[2H])nc3C)cc1-2)C1CCOC1 (stereo not drawn) ; retrieve measured EC50.
Data returned: 0.1 to 1 µM
